B1: ZBTB22 (parent)
chain: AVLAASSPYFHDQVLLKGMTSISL

Variants of: B1
Experiment: protein stability index of a GFP-peptide fusion (GPS, HEK-293T) (PSI 1-6); higher = more stable;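 note: lentivirally expressed fusions sorted by FACS into six bins by GFP to DsRed ratio, PSI derived from sequencing read proportions per bin multiplied by bin number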
Settings: c terminus: a fixed tail appended
measurement.name: protein stability index
Form rule: numeric answer, no unit written next to it.

{"columns": ["sequence", "protein stability index"],
 "data": [
  ["AVLAASSPYFHDQVLLKIMTSISL [G18I]", 2.8],
  ["AVLAASSPYFHDQVLLKGMTSIKL [S23K]", 2.8],
  ["AVLAASSPYFHDQVLNKGMTSISL [L16N]", 2.37],
  ["AVLAASSPYFPDQVLLKGMTSISL [H11P]", 2.11],
  ["AVLANSSPYFHDQVLLKGMTSISL [A5N]", 2.66],
  ["AVLAADSPYFHDQVLLKGMTSISL [S6D]", 2.61],
  ["AVLAASSPYFHDQVLLKGMTSISY [L24Y]", 3.14]
]}

The reported value for ARLAASSPYFHDQVLLKGMTSISL [V2R] in terms of protein stability index is 2.15
